Would you kindly list nuclei count for each of these compounds?
# methodNotes: inhibitors of E-selectin induction by TNFa, primary screen, imaging, HUVEC, immunofluorescence, MLSMR starter and 10KST1 sets (AID 487);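 note: 100% = median nuclei count of all wells on the same plate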
# conditionDetails: HUVEC TNFalpha-induced E-selectin immunofluorescence imaging, at 2 µM; measured here: cell number, toxicity
Record the value in %, omitting the unit from your answer.

Query :: Can you look up the measured nuclei count of c1ccc(-c2nn3c(C4CCCCC4)nnc3s2)cc1 for me?
Result :: 142

Query :: Next entry: C[C@]12CC[C@H]3[C@@H](CCC4=CC(=O)CC[C@@]43C)[C@@H]1CC[C@@H]2C(=O)CO
Result :: 118

Query :: Next entry: Fc1ccc(OCCOCCNCC2CCCO2)cc1 (configuration not stated)
Result :: 84.5

Query :: Next entry: CCCC1Cc2c(sc3ncnc(N)c23)CO1 (configuration not stated)
Result :: 139

Query :: Next entry: CC1(C)S[C@@H]2[C@H](NC(=O)[C@H](C(=O)O)c3ccsc3)C(=O)N2[C@H]1C(=O)O
Result :: 99.7

Query :: Next entry: COC(=O)c1ccc(=O)n(Cc2ccco2)c1
Result :: 107

Query :: Next entry: CCC(=O)c1ccc(O)cc1
Result :: 118

Query :: Next entry: N#CC12CCCCC1CC1CCCCC1(C#N)N2Cc1cccnc1 (configuration not stated)
Result :: 97.2

Query :: Next entry: c1ccc(OCc2nn3c(-c4cccnc4)nnc3s2)cc1
Result :: 146

Query :: Next entry: CCOC(=O)c1[nH]c2cc3c(cc2c1NC(=O)CN1CCC2(CC1)OCCO2)OCO3
Result :: 111

Query :: Next entry: CC(=O)Nc1n[nH]c(S(=O)(=O)Cc2ccc(Cl)cc2Cl)n1
Result :: 144

Query :: Next entry: Cn1c(SCC(=O)NCc2ccccc2)nc2ccccc21
Result :: 79.7
